targetOfAssay: USP25 (USP25-His6, Boston Biochem E-546) (Homo sapiens, UniProt Q9UHP3)
Construct: His6; purchased Boston Biochem E-546
assayNotes: Ubiquitin-Rhodamine 110 Assay for USP25 Activity, Example A-2
Type: biochemical
appliedConditions: Ubiquitin-Rhodamine 110 assay, Example A-2; read-out: USP25 A-2 IC50 range
valueType: IC50

O=C(N[C@H]1COc2cc(N3CCNCC3)ccc2C1)c1cnc2c(ccn2Cc2ccccc2)c1 [Example 59] ... 1 to 50 nM
CO[C@H]1CN(c2ccc3c(c2)CC[C@H](NC(=O)c2cnc4c(c2)C2CC2CN4)C3)C[C@@H]1N (stereo partly shown) [Example 188] ... > 2000 nM
N#Cc1c(N2CC3CCC(C2)N3)cc(F)c2c1CC[C@H](NC(=O)c1cnc3c(c1)[C@@H]1C[C@@H]1CN3)C2 [Example 195] ... 50 to 200 nM
CCn1ccc2cc(C(=O)N[C@H]3CCc4cc(N5C[C@H](OC)[C@@H](N)C5)cc(F)c4C3)nnc21 [Example 138] ... > 2000 nM
CO[C@H]1CN(c2cc(F)c3c(c2)CC[C@@H](NC(=O)c2sc4nc(C)ccc4c2N)C3)C[C@@H]1N [Example 137] ... > 2000 nM
COC[C@@H]1CN(c2ccc3c(c2)OC[C@H](NC(=O)c2sc4nc(C)ccc4c2N)C3)C[C@H]1N [Example 163] ... 200 to 2000 nM
Cc1ccc2c(N)c(C(=O)N[C@H]3COc4cc(N5CC[C@H](N)C5)ccc4C3)sc2n1 [Example 369] ... 50 to 200 nM

====

targetOfAssay: USP25 (USP25-His6, Boston Biochem E-546) (Homo sapiens)
Construct: His6; purchased Boston Biochem E-546
assayNotes: Ubiquitin-Rhodamine 110 Assay for USP25 Activity, Example A-2
Type: biochemical
appliedConditions: Ubiquitin-Rhodamine 110 assay, Example A-2; read-out: USP25 A-2 IC50 range
valueType: IC50

O=C(N[C@H]1CCc2c(c(F)cc(N3CC4CCC(C3)N4)c2C(F)F)C1)c1cnc2c(c1)[C@@H]1C[C@@H]1CN2 (single isomer, unassigned) [Example 359] ... > 2000 nM
Cc1ccc2c(N)c(C(=O)N[C@H]3COc4c(F)c(N5C[C@H]6C[C@@H]5CN6)cc(F)c4C3)sc2n1 [Example 111] ... 50 to 200 nM
Cc1ccc2c(N)c(C(=O)N[C@H]3COc4cc(N5CC[C@@]6(CCCNC6)C5)ccc4C3)sc2n1 [Example 3-14] ... 50 to 200 nM
Cc1ccc2c(N)c(C(=O)N[C@H]3COc4cc(N5C[C@@H](F)[C@@H](N)C5)ccc4C3)sc2n1 (single isomer, unassigned) [Example 3-6] ... 200 to 2000 nM
N#Cc1c(N2CC3CCC(C2)N3)cc(F)c2c1CC[C@H](NC(=O)c1cnc3c(c1)[C@H]1C[C@H]1CN3)C2 [Example 196] ... > 2000 nM
COC[C@H]1C[C@H](N)CN1c1ccc2c(c1)OC[C@H](NC(=O)c1sc3nc(C)ccc3c1N)C2 [Example 261] ... 50 to 200 nM
CCn1cc(Cl)c2cc(C(=O)N[C@H]3COc4c(C#N)c(N5CC6CCC(C5)N6)cc(F)c4C3)nnc21 [Example 356] ... 200 to 2000 nM
Cc1ccc2c(N)c(C(=O)N[C@H]3Cc4ccc(N5CCNCC5)nc4C4(CC4)C3)sc2n1 (single isomer, unassigned) [Example 31-4] ... 200 to 2000 nM
COC[C@H]1CN(c2ccc3c(n2)OC[C@H](NC(=O)c2sc4nc(C)cc(C)c4c2N)C3)C[C@H]1N [Example 349] ... 200 to 2000 nM
Cc1ccc2c(N)c(C(=O)N[C@H]3CCc4nc(N5C[C@H](N)[C@@]6(CCCO6)C5)ccc4C3)sc2n1 [Example 393] ... > 2000 nM
O=C(N[C@H]1COc2cc(N3CCNCC3)ccc2C1)c1cnn2cc(Cl)ccc12 [Example 462] ... > 2000 nM

====

Below, each entry is listed with its recorded IC50.
targetOfAssay: USP25 (USP25-His6, Boston Biochem E-546) (Homo sapiens, UniProt Q9UHP3)
Construct: His6; purchased Boston Biochem E-546
Sequence (Q9UHP3 1-1055): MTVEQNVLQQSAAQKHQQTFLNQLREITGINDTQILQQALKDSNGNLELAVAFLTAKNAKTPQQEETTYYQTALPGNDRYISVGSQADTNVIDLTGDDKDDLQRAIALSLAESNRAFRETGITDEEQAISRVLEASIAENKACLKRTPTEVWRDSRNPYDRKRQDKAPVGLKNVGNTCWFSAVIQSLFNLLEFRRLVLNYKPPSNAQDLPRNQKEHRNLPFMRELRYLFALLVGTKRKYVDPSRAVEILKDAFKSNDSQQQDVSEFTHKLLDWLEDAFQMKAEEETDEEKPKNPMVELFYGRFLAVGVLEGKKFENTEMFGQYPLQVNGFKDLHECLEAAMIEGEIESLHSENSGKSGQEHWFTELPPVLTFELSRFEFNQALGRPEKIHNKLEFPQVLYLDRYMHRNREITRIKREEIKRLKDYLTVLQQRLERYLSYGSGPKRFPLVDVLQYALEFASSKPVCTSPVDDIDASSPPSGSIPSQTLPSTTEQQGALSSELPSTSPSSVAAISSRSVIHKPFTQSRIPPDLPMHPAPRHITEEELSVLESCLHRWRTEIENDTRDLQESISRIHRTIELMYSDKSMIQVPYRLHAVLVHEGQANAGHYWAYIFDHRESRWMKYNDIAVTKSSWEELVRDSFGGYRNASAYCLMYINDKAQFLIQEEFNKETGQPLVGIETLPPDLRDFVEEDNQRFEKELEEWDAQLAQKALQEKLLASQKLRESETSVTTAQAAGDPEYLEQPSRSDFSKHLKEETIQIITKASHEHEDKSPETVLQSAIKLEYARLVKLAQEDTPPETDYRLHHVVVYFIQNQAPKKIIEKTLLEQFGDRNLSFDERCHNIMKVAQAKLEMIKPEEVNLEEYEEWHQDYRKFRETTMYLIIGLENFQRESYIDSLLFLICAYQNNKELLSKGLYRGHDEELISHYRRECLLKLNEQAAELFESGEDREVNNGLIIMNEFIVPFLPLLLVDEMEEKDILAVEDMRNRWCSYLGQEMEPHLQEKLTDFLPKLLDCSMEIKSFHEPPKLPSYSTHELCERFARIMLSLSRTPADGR
assayNotes: Ubiquitin-Rhodamine 110 Assay for USP25 Activity, Example A-2
Format: biochemical
appliedConditions: Ubiquitin-Rhodamine 110 assay, Example A-2; read-out: USP25 A-2 IC50 range
valueType: IC50

CCn1ccc2cc(C(=O)N[C@H]3CCc4nc(N5C[C@H](OC)[C@@H](N)C5)ccc4C3)cnc21 [Example 353] ... > 2000 nM
Cc1ccc2c(N)c(C(=O)N[C@H]3COc4cc(N5C[C@@H]6NCCO[C@@H]6C5)ccc4C3)sc2n1 [Example 153] ... 200 to 2000 nM
CO[C@@]1(C)CN(c2ccc3c(n2)CC[C@H](NC(=O)c2sc4nc(C)cnc4c2N)C3)C[C@@H]1N [Example 279] ... > 2000 nM

====

targetOfAssay: USP25 (USP25-His6, Boston Biochem E-546) (Homo sapiens)
Construct: His6; purchased Boston Biochem E-546
assayNotes: Ubiquitin-Rhodamine 110 Assay for USP25 Activity, Example A-2
Assay type: biochemical
appliedConditions: Ubiquitin-Rhodamine 110 assay, Example A-2; read-out: USP25 A-2 IC50 range
valueType: IC50

Cc1ccc2c(N)c(C(=O)N[C@H]3COc4cc(N5C[C@@H](N)[C@H](C(F)F)C5)ccc4C3)sc2n1 ... 50 to 200 nM
Cc1cnc2c(N)c(C(=O)N[C@@H]3CCc4cc(N5CC6CCC(C5)N6)ccc4C3)sc2n1 (single isomer, unassigned) ... > 2000 nM
Cc1ccc2c(N)c(C(=O)N[C@H]3COc4cc(N5C[C@H](N)[C@]6(CCO6)C5)ccc4C3)sc2n1 ... 200 to 2000 nM
Cc1ccc2c(N)c(C(=O)N[C@H]3CCc4nc(N5CCN[C@H](C)C5)ccc4C3)sc2n1 (single isomer, unassigned) ... 200 to 2000 nM
Cc1ccc2c(N)c(C(=O)N[C@H]3COc4cc([C@H]5CCNC[C@@H]5F)ccc4C3)sc2n1 ... 50 to 200 nM
Cc1ccc2c(N)c(C(=O)N[C@H]3COc4cc(N5C[C@@H](N)C(C)(C)C5)ccc4C3)sc2n1 ... 50 to 200 nM
Cc1ccc2c(N)c(C(=O)N[C@@H]3COc4c(cc(F)c(N5CCNCC5)c4F)C3)sc2n1 (single isomer, unassigned) ... > 2000 nM
Cc1ccc2c(N)c(C(=O)N[C@@H]3COc4cc(N5CCNCC5)cc(Cl)c4C3)sc2n1 ... > 2000 nM
Cc1cc(C)c2c(N)c(C(=O)N[C@H]3CCc4nc(N5CC6CCC(C5)N6)ccc4C3)sc2n1 ... 200 to 2000 nM
COc1ccc2c(N)c(C(=O)N[C@H]3COc4cc(N5CCNCC5)cc(F)c4C3)sc2n1 ... 50 to 200 nM
Cc1ccc2c(N)c(C(=O)N[C@H]3COc4cc(N5C[C@H]6NCCC(F)(F)[C@H]6C5)ccc4C3)sc2n1 ... 200 to 2000 nM
Cc1cc(C)c2c(N)c(C(=O)N[C@@H]3COc4cc(N5CCNCC5)c(F)c(F)c4C3)sc2n1 ... 200 to 2000 nM
Cc1cc(C)c2c(N)c(C(=O)N[C@H]3COc4cc(N5CC6CNCC(C5)O6)cc(F)c4C3)sc2n1 ... 1 to 50 nM
Cc1ccc2c(N)c(C(=O)N[C@@H]3CCc4nc(N5CCNCC5)c(F)cc4C3)sc2n1 (single isomer, unassigned) ... > 2000 nM
Cc1ccc2c(N)c(C(=O)N[C@H]3COc4cc([C@@H]5CCNCC5(F)F)ccc4C3)sc2n1 ... 1 to 50 nM
Cc1cc(C)c2c(N)c(C(=O)N[C@H]3COc4cc(N5CC6CC(C5)N6)cc(F)c4C3)sc2n1 ... 50 to 200 nM
CO[C@H]1CCN(c2ccc3c(c2)OC[C@H](NC(=O)c2sc4nc(C)ccc4c2N)C3)C[C@@H]1N ... 200 to 2000 nM
CO[C@H]1CN(c2ccc3c(c2)CC[C@H](NC(=O)c2sc4nc(C)sc4c2N)C3)C[C@@H]1N ... > 2000 nM
